molecular target: Muscarinic acetylcholine receptor M2 (Sus scrofa) (UniProt P06199); test: Equilibrium binding to muscarinic acetylcholine receptor M2 using [3H]NMS in porcine heart ventricles
Sequence (P06199 whole entry): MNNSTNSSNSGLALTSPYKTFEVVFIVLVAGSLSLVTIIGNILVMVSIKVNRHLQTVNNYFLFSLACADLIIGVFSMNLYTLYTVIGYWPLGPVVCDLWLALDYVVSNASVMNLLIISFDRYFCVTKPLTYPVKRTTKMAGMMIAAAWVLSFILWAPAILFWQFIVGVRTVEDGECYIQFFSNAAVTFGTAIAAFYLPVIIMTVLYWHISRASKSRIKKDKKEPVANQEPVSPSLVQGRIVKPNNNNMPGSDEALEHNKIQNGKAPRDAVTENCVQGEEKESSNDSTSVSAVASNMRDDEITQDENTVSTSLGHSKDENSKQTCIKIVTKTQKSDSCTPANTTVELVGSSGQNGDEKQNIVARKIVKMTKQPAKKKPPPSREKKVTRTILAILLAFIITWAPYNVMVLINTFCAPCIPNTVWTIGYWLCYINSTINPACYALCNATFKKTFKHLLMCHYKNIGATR
Record form. Attribute: [3H]NMS equilibrium binding (%). Fill in for each entry.
One number for each entry, in %.

Completed entries (count: 2):
C=CC[N+]12CC[C@@]34c5ccccc5N5/C=C6\C7N(c8ccccc8[C@@]78CC[N+]7(CC=C)C/C(=C/CO)[C@@H]6C[C@@H]87)[C@@H]6OCC=C(C1)[C@H](C[C@@H]32)C6C54 (stereo partly drawn)	119
C=CC[N+]12CC[C@@]34c5ccccc5N5[C@@H]6OCC=C7C[N+]8(CC=C)CC[C@]9%10c%11ccccc%11N([C@@H]%11OCC=C(C1)[C@H](C[C@@H]32)[C@@H]%11[C@H]54)[C@H]9[C@H]6[C@H]7C[C@@H]%108 (stereo partly drawn)	109

Asked: Consider the molecule C1=C2C[N@+]3(Cc4ccc5ccccc5c4)CCC45c6ccccc6N6C7OCC=C8C[N@+]9(Cc%10ccc%11ccccc%11c%10)CCC%10%11c%12ccccc%12N(C(OC1)C(C2CC43)C65)C%10C7C8CC%119 (stereo partly drawn) and give its measured [3H]NMS equilibrium binding (%).
Given back: 89
